- target.of.assay: USP14 (Homo sapiens (Human))
- Sequence (P54578 whole entry, looked up): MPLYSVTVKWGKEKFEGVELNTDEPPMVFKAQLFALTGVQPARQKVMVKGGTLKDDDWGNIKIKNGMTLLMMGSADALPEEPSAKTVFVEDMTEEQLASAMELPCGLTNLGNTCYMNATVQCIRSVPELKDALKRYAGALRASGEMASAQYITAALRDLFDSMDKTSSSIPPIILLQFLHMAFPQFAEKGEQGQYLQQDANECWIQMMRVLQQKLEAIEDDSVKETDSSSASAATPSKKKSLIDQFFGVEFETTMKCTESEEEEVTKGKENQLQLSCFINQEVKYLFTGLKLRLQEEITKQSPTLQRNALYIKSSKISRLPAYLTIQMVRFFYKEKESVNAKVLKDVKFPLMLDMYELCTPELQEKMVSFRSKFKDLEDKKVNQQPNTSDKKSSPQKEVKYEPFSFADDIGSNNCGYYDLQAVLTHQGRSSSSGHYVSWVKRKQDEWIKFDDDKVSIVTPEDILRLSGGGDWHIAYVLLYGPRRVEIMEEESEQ
- test.name: Usp14 inhibition assay (Example 57B, B-series compounds)
- Format: biochemical
- condition.description: IC50 class; average value from a minimum of two experimental determinations
pIC50: −log10 of the molar value.
property.name: pIC50

{"compound": "Cc1c(C(=O)CN2[C@@H]3CC[C@H]2[C@@H](O)C3)cc(CCCCC#N)n1-c1ccc(Cl)cc1 (racemic) [Example 29B]", "reported.value": "> 7.30"}
{"compound": "Cc1cc(C(=O)CN2[C@@H]3CC[C@@H]2CC(O)C3)c(C)n1-c1ccc(C#N)cc1 (stereo partly shown) [Example 67B]", "reported.value": "6.30 to 7.30"}
{"compound": "Cc1c(C(=O)CN2C3CCC2CC3)cc(CCCCS(C)(=O)=O)n1-c1ccc(C#N)cc1 [Example 30B]", "reported.value": "> 7.30"}
{"compound": "COCCCCc1cc(C(=O)CN2[C@@H]3CC[C@H]2[C@@H](O)C3)c(C)n1-c1ccc(C#N)cc1 (stereo in doubt) [Example 12B]", "reported.value": "> 7.30"}
